System: IGROV1 ovarian
experimental protocol: NCI tumour cell line growth inhibition, 48 h; in the data active means GI50 below about 0.43 µM; inactive means the rest
The reply should be one of these categories: yes (1) (active), no (0) (inactive)

Before answering, review these 2 worked examples.
molecule: Nc1ncnc2c(C3OC(CO)C(O)C3O)scc12 (stereo not drawn)
label class: yes (1)
--
molecule: CO/N=C(/COc1c(-c2ccccc2)oc2ccccc2c1=O)c1ccc(OC)cc1
label class: no (0)

In the following, a different molecule is considered.
Qu. Fill in: this test's call for CCC[CH2][Ge]([CH2]CCC)([CH2]CCC)[O]C(=O)C(OC)c1ccccc1 (stereo not drawn) is ___
Ans. no (0)

---

# maps each entry to its GI50
Test system: NCI-H226 lung
experimental protocol: NCI tumour cell line growth inhibition, 48 h

Below are worked cases with known answers.
compound: COc1ccc2c(c1)sc1nc(-c3ccccc3)c(-c3ccc(O)c(OC)c3)n12
tested target: NCI-H226 lung
GI50: 22 µM
--
compound: CNNC(=N\S(=O)(=O)c1cc(C(=O)Nc2ccc(Cl)cc2)c(Cl)cc1SCc1ccccc1)/N=C/c1ccc([N+](=O)[O-])s1
tested target: NCI-H226 lung
GI50: > 100 µM
--
compound: COc1ccc2[nH]c(=O)c(/C=C/C(=O)/C=C/c3ccc(O)c(OC)c3)cc2c1
tested target: NCI-H226 lung
GI50: 2.14 µM
--
compound: CCC[CH2][Ge]([CH2]CCC)([CH2]CCC)[O]C(=O)C(OC)c1ccccc1 (stereo unspecified)
tested target: NCI-H226 lung
GI50: 92.7 µM
--
compound: O=C1c2ccccc2-c2n[nH]c3cccc1c23
tested target: NCI-H226 lung
GI50: 10.3 µM

Qu. Give its GI50 value. Item: `COc1cccc(-n2ncc3c(N/N=C/c4ccc(S(C)(=O)=O)cc4)ncnc32)c1`
Ans. 5.46 µM

Qu. Continue with `CO/N=C(/COc1c(-c2ccccc2)oc2ccccc2c1=O)c1ccc(OC)cc1`
Ans. > 100 µM

Qu. Continue with `Nc1nc(N)c2c(ccc3nccc32)[nH]1`
Ans. 15.2 µM

Qu. Continue with `COc1ccc(-c2cc(-c3cn[nH]c3-c3ccccn3)ccn2)cc1`
Ans. > 25 µM

Qu. Continue with `COc1c(NC(=O)CC(C)=O)[c]([Hg][O]C(C)=O)c(OC)c(Cl)[c]1[Hg][O]C(C)=O`
Ans. 17.7 µM

Qu. Continue with `COc1ccc(/C=C/C(=O)c2ccc3cc(OC)c(OC)cc3c2)cc1OC`
Ans. 2.97 µM

---

Tested on: IGROV1 ovarian
experimental protocol: NCI tumour cell line growth inhibition, 48 h
endpoint name: TGI

Below are worked cases with known answers.
compound: CCCCCCCCCC1C(C)c2c([nH]c3ccccc23)C2C(=O)N(c3ccccc3)C(=O)C21 (stereo unspecified)
TGI: 35.3 µM
//
compound: N#Cc1cccc(/C=C(/C(=O)c2ccccc2)c2ccccc2)c1
TGI: 25.3 µM
//
compound: CSCCCNC(=O)c1csc(-c2csc(CCN)n2)n1
TGI: > 100 µM
//
compound: N#Cc1c(C#N)c(-c2ccco2)n(-c2ccccc2)c1N
TGI: > 100 µM
//
compound: CCN(CC)CCCOc1cc(O)c2c(=O)cc(-c3ccccc3)oc2c1
TGI: 22.1 µM

Qu. Give its TGI value. Item: `COc1ccc(-c2cc(-c3cn[nH]c3-c3ccccn3)ccn2)cc1`
Ans. > 25 µM

---

Test system: SR leukemia
experimental protocol: NCI tumour cell line growth inhibition, 48 h
endpoint name: TGI (µM)
Could you give me the number in µM? Just the number is fine.

Qu. What value of TGI on SR leukemia does `O=C1c2ccccc2C(=O)c2c1ccc(C(=O)O)c2-c1ccc2ccccc2c1` have?
Ans. 51.6

Qu. Continue with `CCOC(=O)c1ccc(Nc2sc(C(=O)c3cccc([N+](=O)[O-])c3)c(N)c2C#N)cc1`
Ans. 4.71

---

# maps each entry to its TGI
Test system: RPMI-8226 leukemia
experimental protocol: NCI tumour cell line growth inhibition, 48 h
Could you give me the number in µM? Just the number is fine.

Below are worked cases with known answers.
molecule: O=c1oc2ccc(Cl)cc2c(=O)n1-c1cc(C(F)(F)F)cc(C(F)(F)F)c1
TGI (µM): 0.712

molecule: COc1cc(Cn2ccc3c2-c2oncc2CC3)cc(OC)c1
TGI (µM): 50.3

Query molecule follows.
Qu. Give its TGI value. Item: C[C@]12CCC3c4ccc(O)cc4CCC3C1Cc1ccc(O)cc12 (stereo not given in full)
Ans. 18

---

Test system: M14 melanoma
experimental protocol: NCI tumour cell line growth inhibition, 48 h
# maps each entry to its GI50

Qu. What value of GI50 on M14 melanoma does `Cc1cc2c3ccccc3ccc2[n+]2ccccc12` have?
Ans. 6.53 µM

---

System: HCT-116 colon
experimental protocol: NCI tumour cell line growth inhibition, 48 h; in the data active = GI50 below about 0.43 µM; inactive = the rest
The reply should be one of these categories: true (active), false (inactive)

compound: COc1cc(Cn2ccc3c2-c2oncc2CC3)cc(OC)c1
label class: false
--
compound: CN1CCN(Cc2ccc(NC(=O)c3nc4ccc5[nH]ncc5c4c4c3CCC4)cc2C(F)(F)F)CC1
label class: false
--
compound: C[C@]12CCC3c4ccc(O)cc4CCC3C1Cc1ccc(O)cc12 (some centres not stated)
label class: false

Qu. Fill in: this test's call for `ICCC(c1ccccc1)(c1ccccc1)c1ccccc1` is ___
Ans. false

Qu. Continue with CCC[CH2][Ge]([CH2]CCC)([CH2]CCC)[O]C(=O)C(OC)c1ccccc1 (configuration not stated)
Ans. false

Qu. Continue with `CC[C@H](C)[C@H](NC(=O)Nc1ccccc1)C(=O)N(C)[C@H](C[C@@H](OC(C)=O)c1nc(C(=O)N[C@@H](Cc2ccccc2)C[C@H](C)C(=O)OC)cs1)C(C)C`
Ans. false

Qu. Continue with `COc1c(NC(=O)CC(C)=O)[c]([Hg][O]C(C)=O)c(OC)c(Cl)[c]1[Hg][O]C(C)=O`
Ans. false

Qu. Continue with `CCCCCCCCCCCC[n+]1ccccc1`
Ans. false

---

Tested on: SF-268 CNS
experimental protocol: NCI tumour cell line growth inhibition, 48 h
endpoint name: TGI

Below are worked cases with known answers.
compound: CC(=O)OCC1OC(n2c(=O)n(-c3ccccc3)c(=O)c3cc(Br)cc(Br)c32)C(OC(C)=O)C(OC(C)=O)C1OC(C)=O (centres undefined)
endpoint name: TGI
result value: > 100 µM
--
compound: CNNC(=N\S(=O)(=O)c1cc(C(=O)Nc2ccc(Cl)cc2)c(Cl)cc1SCc1ccccc1)/N=C/c1ccc([N+](=O)[O-])s1
endpoint name: TGI
result value: > 100 µM
--
compound: Cc1ccc(N=Nc2c(N)nn(-c3ccccc3)c2N)cc1
endpoint name: TGI
result value: > 100 µM
--
compound: c1ccc(N=c2sc3ccccc3sc2=Nc2ccccc2)cc1
endpoint name: TGI
result value: 10.2 µM
--
compound: Cn1c(Sc2ccc(-c3cccnc3)n2C)ccc1-c1cccnc1
endpoint name: TGI
result value: 23.7 µM
--
compound: Nc1nnc(N)n1NC(=O)C(=O)Nc1ccc([N+](=O)[O-])cc1
endpoint name: TGI
result value: > 100 µM
--
compound: CC#Cc1cc2c(cc1O)CC[C@@H]1[C@@H]2CC[C@]2(C)[C@@H](O)CC[C@@H]12
endpoint name: TGI
result value: > 100 µM
--
compound: Cc1ncc(C(=O)Nc2ccc(CN3CCN(C)CC3)c(C(F)(F)F)c2)cc1C#Cc1cnc(N)c2ncccc12
endpoint name: TGI
result value: 3 µM

Query compound follows.
Qu. Give its TGI value. Item: `COc1ccc2oc(=O)c(CC=C(C)C)c(O)c2c1C`
Ans. > 100 µM

---

System: HCC-2998 colon
experimental protocol: NCI tumour cell line growth inhibition, 48 h
# maps each entry to its GI50

Below are worked cases with known answers.
molecule: Nc1ccn(C2CC(O)C(CO)O2)c(=O)n1 (stereo not given)
GI50: > 5000 µM

molecule: CO[C@H]1C[C@@H]2CC[C@@H](C)[C@@](O)(O2)C(=O)C(=O)N2CCCC[C@H]2C(=O)O[C@H]([C@H](C)C[C@@H]2CC[C@@H](OP(C)(C)=O)[C@H](OC)C2)CC(=O)[C@H](C)/C=C(\C)[C@@H](O)[C@@H](OC)C(=O)[C@H](C)C[C@H](C)/C=C/C=C/C=C/1C
GI50: 5.02 µM

molecule: O=C1c2ccccc2-c2n[nH]c3cccc1c23
GI50: 19.3 µM

molecule: Nc1nc(N)c2c(ccc3nccc32)[nH]1
GI50: 9.79 µM

Qu. Give its GI50 value. Item: `CC[C@H](C)[C@H](NC(=O)Nc1ccccc1)C(=O)N(C)[C@H](C[C@@H](OC(C)=O)c1nc(C(=O)N[C@@H](Cc2ccccc2)C[C@H](C)C(=O)OC)cs1)C(C)C`
Ans. 3.48 µM
